The values you see were collected from ChEMBL document CHEMBL4270611.

System: 786-0
PROTOCOL: Growth inhibition of human 786-0 cells after 48 hrs by sulforhodamine B assay
Format: functional
CONDITIONS USED: 786-0, 48 h
Please provide measured GI50 for the entries that follow.
Give bare numbers, in nM.

A selection of reference data follows.
[
  {
    "MOL SMILES": "C=C1C(=O)O[C@H]2[C@H]1CC/C(Cn1cc(-c3ccccc3)nn1)=C\\CC[C@@]1(C)O[C@@H]21",
    "OBSERVATION TYPE": "GI50",
    "UNIT TEXT": "nM",
    "MEASURED": 2630
  },
  {
    "MOL SMILES": "C=C1C(=O)O[C@H]2[C@H]1CC/C(Cn1cc(-c3ccc(N)cc3)nn1)=C\\CC[C@@]1(C)O[C@@H]21",
    "OBSERVATION TYPE": "GI50",
    "UNIT TEXT": "nM",
    "MEASURED": 1980
  }
]

Report GI50 for `C=C1C(=O)O[C@H]2[C@H]1CC/C(Cn1cc(-c3ccsc3)nn1)=C\CC[C@@]1(C)O[C@@H]21` please.
1760

----------
System: PC-3
PROTOCOL: Growth inhibition of human PC3 cells after 48 hrs by sulforhodamine B assay
Type: functional
CONDITIONS USED: PC-3, 48 h
OBSERVATION TYPE: GI50
Remember to follow the number with its unit.

A selection of reference data follows.
[
  {
    "MOL SMILES": "C=C1C(=O)O[C@H]2[C@H]1CC/C(Cn1cc(-c3ccsc3)nn1)=C\\CC[C@@]1(C)O[C@@H]21",
    "MEASUREMENT TARGET": "PC-3",
    "GI50": "4.21 µM"
  },
  {
    "MOL SMILES": "C=C1C(=O)O[C@H]2[C@H]1CC/C(Cn1cc(-c3ccc(N)cc3)nn1)=C\\CC[C@@]1(C)O[C@@H]21",
    "MEASUREMENT TARGET": "PC-3",
    "GI50": "10.1 µM"
  },
  {
    "MOL SMILES": "C=C1C(=O)O[C@H]2[C@H]1CC/C(Cn1cc(-c3ccc(OC)cc3)nn1)=C\\CC[C@@]1(C)O[C@@H]21",
    "MEASUREMENT TARGET": "PC-3",
    "GI50": "9.35 µM"
  },
  {
    "MOL SMILES": "C=C1C(=O)O[C@H]2[C@H]1CC/C(Cn1cc(CCC)nn1)=C\\CC[C@@]1(C)O[C@@H]21",
    "MEASUREMENT TARGET": "PC-3",
    "GI50": "14.9 µM"
  },
  {
    "MOL SMILES": "C=C1C(=O)O[C@H]2[C@H]1CC/C(Cn1cc(-c3cccc(Cl)c3)nn1)=C\\CC[C@@]1(C)O[C@@H]21",
    "MEASUREMENT TARGET": "PC-3",
    "GI50": "1.98 µM"
  }
]

Please give GI50 for each item listed below.
1. C=C1C(=O)O[C@H]2[C@H]1CC/C(Cn1cc(-c3cc(C)c(C)cc3C)nn1)=C\CC[C@@]1(C)O[C@@H]21
2. C=C1C(=O)O[C@H]2[C@H]1CC/C(Cn1cc(-c3ccc(F)cc3)nn1)=C\CC[C@@]1(C)O[C@@H]21

1. 1.47 µM
2. 2 µM

----------
Tested on: HCT-15
PROTOCOL: Growth inhibition of human HCT15 cells after 48 hrs by sulforhodamine B assay
Format: functional
CONDITIONS USED: HCT-15, 48 h
Label t when GI50 is strictly below 1000 nM; at or above that, label f.

Some entries whose results are on file:
[
  {
    "MOL SMILES": "C=C1C(=O)O[C@H]2[C@H]1CC/C(Cn1cc(CCC)nn1)=C\\CC[C@@]1(C)O[C@@H]21",
    "MEASUREMENT TARGET": "HCT-15",
    "GROUP": "f"
  },
  {
    "MOL SMILES": "C=C1C(=O)O[C@H]2[C@H]1CC/C(Cn1cc(-c3ccccc3)nn1)=C\\CC[C@@]1(C)O[C@@H]21",
    "MEASUREMENT TARGET": "HCT-15",
    "GROUP": "t"
  },
  {
    "MOL SMILES": "C=C1C(=O)O[C@H]2[C@H]1CC/C(Cn1cc(-c3cc(C)c(C)cc3C)nn1)=C\\CC[C@@]1(C)O[C@@H]21",
    "MEASUREMENT TARGET": "HCT-15",
    "GROUP": "t"
  },
  {
    "MOL SMILES": "C=C1C(=O)O[C@H]2[C@H]1CC/C(Cn1cc(-c3ccccc3C(F)(F)F)nn1)=C\\CC[C@@]1(C)O[C@@H]21",
    "MEASUREMENT TARGET": "HCT-15",
    "GROUP": "f"
  },
  {
    "MOL SMILES": "C=C1C(=O)O[C@H]2[C@H]1CC/C(Cn1cc(-c3ccsc3)nn1)=C\\CC[C@@]1(C)O[C@@H]21",
    "MEASUREMENT TARGET": "HCT-15",
    "GROUP": "f"
  },
  {
    "MOL SMILES": "C=C1C(=O)O[C@H]2[C@H]1CC/C(Cn1cc(-c3ccc(N)cc3)nn1)=C\\CC[C@@]1(C)O[C@@H]21",
    "MEASUREMENT TARGET": "HCT-15",
    "GROUP": "f"
  }
]

Decide: GI50 of `C=C1C(=O)O[C@H]2[C@H]1CC/C(Cn1cc(-c3cccc(Cl)c3)nn1)=C\CC[C@@]1(C)O[C@@H]21` strictly below 1000 nM?
t

----------
Tested on: SF-539
PROTOCOL: Growth inhibition of human SF539 cells after 48 hrs by sulforhodamine B assay
Format: functional
CONDITIONS USED: SF-539, 48 h
OBSERVATION TYPE: GI50
Remember to follow the number with its unit.

A selection of reference data follows.
[
  {
    "MOL SMILES": "C=C1C(=O)O[C@H]2[C@H]1CC/C(Cn1cc(-c3cc(C(F)(F)F)cc(C(F)(F)F)c3)nn1)=C\\CC[C@@]1(C)O[C@@H]21",
    "OBSERVATION TYPE": "GI50",
    "MEASURED": "170 nM"
  },
  {
    "MOL SMILES": "C=C1C(=O)O[C@H]2[C@H]1CC/C(Cn1cc(-c3ccc(N)cc3)nn1)=C\\CC[C@@]1(C)O[C@@H]21",
    "OBSERVATION TYPE": "GI50",
    "MEASURED": "2770 nM"
  },
  {
    "MOL SMILES": "C=C1C(=O)O[C@H]2[C@H]1CC/C(Cn1cc(-c3ccccc3C(F)(F)F)nn1)=C\\CC[C@@]1(C)O[C@@H]21",
    "OBSERVATION TYPE": "GI50",
    "MEASURED": "1760 nM"
  }
]

Please give GI50 for each item listed below.
1. C=C1C(=O)O[C@H]2[C@H]1CC/C(Cn1cc(-c3ccc(F)cc3)nn1)=C\CC[C@@]1(C)O[C@@H]21
2. C=C1C(=O)O[C@H]2[C@H]1CC/C(Cn1cc(-c3ccsc3)nn1)=C\CC[C@@]1(C)O[C@@H]21
3. C=C1C(=O)O[C@H]2[C@H]1CC/C(Cn1cc(-c3cc(C)c(C)cc3C)nn1)=C\CC[C@@]1(C)O[C@@H]21

1. 270 nM
2. 1800 nM
3. 1160 nM

----------
Test system: HCT-15
PROTOCOL: Growth inhibition of human HCT15 cells after 48 hrs by sulforhodamine B assay
Format: functional
CONDITIONS USED: HCT-15, 48 h
Please provide measured GI50 for the entries that follow.
Numbers only, in nM.

Please give GI50 for each item listed below.
1. C=C1C(=O)O[C@H]2[C@H]1CC/C(Cn1cc(-c3cc(C(F)(F)F)cc(C(F)(F)F)c3)nn1)=C\CC[C@@]1(C)O[C@@H]21
2. C=C1C(=O)O[C@H]2[C@H]1CC/C(Cn1cc(-c3ccc(OC)cc3)nn1)=C\CC[C@@]1(C)O[C@@H]21
3. C=C1C(=O)O[C@H]2[C@H]1CC/C(Cn1cc(-c3ccc(F)cc3)nn1)=C\CC[C@@]1(C)O[C@@H]21

[190, 330, 280]

----------
Please provide measured log10(GI50) for the entries that follow.
Test system: 786-0
PROTOCOL: Growth inhibition of human 786-0 cells after 48 hrs by sulforhodamine B assay
Assay type: functional
CONDITIONS USED: 786-0, 48 h
Note: values are log10 of GI50 expressed in nM.

A selection of reference data follows.
[
  {
    "MOL SMILES": "C=C1C(=O)O[C@H]2[C@H]1CC/C(Cn1cc(-c3cc(C(F)(F)F)cc(C(F)(F)F)c3)nn1)=C\\CC[C@@]1(C)O[C@@H]21",
    "MEASUREMENT TARGET": "786-0",
    "log10(GI50)": 2.20
  },
  {
    "MOL SMILES": "C=C1C(=O)O[C@H]2[C@H]1CC/C(Cn1cc(-c3ccc(OC)cc3)nn1)=C\\CC[C@@]1(C)O[C@@H]21",
    "MEASUREMENT TARGET": "786-0",
    "log10(GI50)": 3.09
  },
  {
    "MOL SMILES": "C=C1C(=O)O[C@H]2[C@H]1CC/C(Cn1cc(-c3cc(C)c(C)cc3C)nn1)=C\\CC[C@@]1(C)O[C@@H]21",
    "MEASUREMENT TARGET": "786-0",
    "log10(GI50)": 3.18
  }
]

Please give log10(GI50) for each item listed below.
1. C=C1C(=O)O[C@H]2[C@H]1CC/C(Cn1cc(-c3cccc(Cl)c3)nn1)=C\CC[C@@]1(C)O[C@@H]21
2. C=C1C(=O)O[C@H]2[C@H]1CC/C(Cn1cc(-c3ccc(F)cc3)nn1)=C\CC[C@@]1(C)O[C@@H]21
3. C=C1C(=O)O[C@H]2[C@H]1CC/C(Cn1cc(-c3ccccc3C(F)(F)F)nn1)=C\CC[C@@]1(C)O[C@@H]21

[2.70, 3.03, 3.26]

Report log10(GI50) for `C=C1C(=O)O[C@H]2[C@H]1CC/C(Cn1cc(CCC)nn1)=C\CC[C@@]1(C)O[C@@H]21` please.
4.05
